Exercise: state measured log10 of clearance for each of the compounds provided.
assay: Clearance of compound in rat was evaluated; assay type: ADME, organism-based; settings: in vivo
Please note: log10 values; quantity clearance; unit mL/min/kg.

Worked cases, log10 of clearance given:
INSERT INTO measurements (structuresmiles, quantitykind, resultvalue) VALUES
  ('O=C(N[C@@H](Cc1ccc2[nH]c(-c3c(Cl)cccc3Cl)nc2c1)C(=O)O)c1c(Cl)cccc1Cl', 'log10 of clearance', 1.38),
  ('O=C(N[C@@H](Cc1ccc2oc(-c3c(Cl)cccc3Cl)nc2c1)C(=O)O)c1c(Cl)cncc1Cl', 'log10 of clearance', 1.40),
  ('O=C(O)[C@H](Cc1ccc2nc(-c3c(Cl)cccc3Cl)oc2c1)NC(=O)[C@@H]1CCN1S(=O)(=O)c1cc(Cl)cc(Cl)c1', 'log10 of clearance', 1.38);

Go through the items and report each one's log10 of clearance.
1. O=C(N[C@@H](Cc1ccc2oc(-c3c(Cl)cccc3Cl)nc2c1)C(=O)O)c1c(Cl)cccc1Cl
2. COc1cccc(OC)c1-c1ccc(C[C@H](NC(=O)[C@]2(C)CCN2S(=O)(=O)c2cc(Cl)cc(Cl)c2)C(=O)O)cc1
3. O=C(Nc1ccc(C[C@H](NC(=O)[C@@H]2CCN2S(=O)(=O)c2cc(Cl)cc(Cl)c2)C(=O)O)cc1)c1c(Cl)cccc1Cl
4. O=C(O)[C@H](Cc1ccc2[nH]c(-c3c(Cl)cccc3Cl)nc2c1)NC(=O)[C@@H]1CCN1S(=O)(=O)c1cc(Cl)cc(Cl)c1
5. O=C(O)[C@H](Cc1ccc2oc(-c3c(Cl)cccc3Cl)nc2c1)NC(=O)[C@@H]1CCN1S(=O)(=O)c1cc(Cl)cc(Cl)c1

0.95
1.99
1.52
1.32
1.38

Where do the numbers come from? From ChEMBL document CHEMBL1148237.
